- SUBJECT OF TEST: ErbB2 with Exon 20 YVMA insertion (HER2-YVMA) (Homo sapiens (Human), UniProt P04626, INS775YVMA)
- Sequence (P04626 other isoform, or with tags, fused parts or gaps ins YVMA behind 775): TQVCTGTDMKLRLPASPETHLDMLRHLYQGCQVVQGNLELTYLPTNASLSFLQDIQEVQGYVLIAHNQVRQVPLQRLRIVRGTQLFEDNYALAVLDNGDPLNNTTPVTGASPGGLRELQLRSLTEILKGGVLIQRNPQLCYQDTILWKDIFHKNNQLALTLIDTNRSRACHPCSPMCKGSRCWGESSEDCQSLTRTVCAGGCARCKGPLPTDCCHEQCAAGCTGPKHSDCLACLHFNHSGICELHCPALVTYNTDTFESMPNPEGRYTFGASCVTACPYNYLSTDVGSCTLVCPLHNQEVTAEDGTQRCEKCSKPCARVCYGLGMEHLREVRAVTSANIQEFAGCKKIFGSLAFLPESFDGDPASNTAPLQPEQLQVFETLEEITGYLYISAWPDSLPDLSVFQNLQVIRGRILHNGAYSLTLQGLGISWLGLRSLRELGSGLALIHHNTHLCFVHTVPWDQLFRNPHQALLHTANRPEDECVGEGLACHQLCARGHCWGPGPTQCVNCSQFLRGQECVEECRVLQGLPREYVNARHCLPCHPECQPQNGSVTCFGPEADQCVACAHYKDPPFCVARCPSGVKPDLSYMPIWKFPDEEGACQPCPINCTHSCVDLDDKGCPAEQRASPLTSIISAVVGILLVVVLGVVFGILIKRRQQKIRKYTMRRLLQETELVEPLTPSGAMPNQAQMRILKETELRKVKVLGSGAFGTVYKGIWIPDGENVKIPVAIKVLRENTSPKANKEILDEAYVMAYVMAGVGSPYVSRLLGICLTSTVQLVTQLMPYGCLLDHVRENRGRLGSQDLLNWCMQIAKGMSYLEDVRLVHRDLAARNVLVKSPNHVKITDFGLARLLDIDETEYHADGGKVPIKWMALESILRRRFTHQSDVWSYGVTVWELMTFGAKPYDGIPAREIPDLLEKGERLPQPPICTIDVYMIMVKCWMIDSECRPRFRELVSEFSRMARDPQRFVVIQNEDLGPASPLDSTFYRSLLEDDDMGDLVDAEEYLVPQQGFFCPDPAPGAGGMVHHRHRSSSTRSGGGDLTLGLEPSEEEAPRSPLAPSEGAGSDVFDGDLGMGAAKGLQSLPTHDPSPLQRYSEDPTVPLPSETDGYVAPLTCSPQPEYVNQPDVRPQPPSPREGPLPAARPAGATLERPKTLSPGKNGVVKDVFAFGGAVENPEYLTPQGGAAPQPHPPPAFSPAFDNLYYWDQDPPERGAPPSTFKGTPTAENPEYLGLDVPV
- TEST SUMMARY: Cellular Phosphorylation Assay, Assay 4 (constitutive ErbB2 phosphorylation, NIH 3T3 cells)
- Type: cell-based
- CONDITION SET: ErbB2 YVMA phosphorylation
EXPERIMENTAL ENDPOINT: IC50 (nM)

Consider the molecule shown here: "C=CC(=O)N1CCC(Oc2nc3c(Nc4ccc(Oc5ccc6cn(C)nc6c5)c(Cl)c4F)ncnc3cc2OC)CC1" What is its recorded IC50?
19.6

Which value of IC50 has been reported for "C=CC(=O)N1[C@@H]2CC[C@H]1C[C@@H](c1ccc3ncnc(Nc4ccc(Oc5cnc6c(c5)ncn6C)c(C)c4)c3n1)C2" in the records?
20.1

Which measured IC50 value corresponds to "C=CC(=O)N1CCN(c2ccc3ncnc(Nc4ccc(Oc5cnc6c(c5)ncn6C)c(C)c4F)c3n2)CC1(C)C" ?
8.9

I = C=CC(=O)N1C[C@H]2C[C@@H]1[C@H](c1ccc3ncnc(Nc4ccc(Oc5ccn6ncnc6c5)c(Cl)c4F)c3n1)C2
II = C=CC(=O)N1C[C@H]2CC[C@@H]1CN2c1ccc2ncnc(Nc3ccc(Oc4ccn5ncnc5c4)c(C)c3F)c2n1
III = C=CC(=O)N1CCC(Oc2ccc3ncnc(Nc4ccc(Oc5ccn6ncnc6c5)c(C)c4)c3n2)CC1
I would appreciate it if you could sort these 3 molecules by IC50, starting from the smallest number. # format: label list in the order the request specifies
I, III, II

1 = C=CC(=O)N1CCN(c2ccc3ncnc(Nc4ccc(Oc5ccn6ncnc6c5)c(Cl)c4F)c3n2)CC1(C)C
2 = C=CC(=O)N1CCN(c2ccc3ncnc(Nc4cc(C)c(Oc5ccn6ncnc6c5)cc4F)c3n2)CC1(C)C
Select the item whose IC50 value is smaller, choosing between 1 and 2 . Return value: the label identifying the chosen record.
1
